test: chemical genetic growth profiling, strain panel (AID 1159580);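 note: tested at 20 µM; growth read once vehicle control cultures reached saturation at 30 °C; 1 = growth at the plate median or of vehicle wells; lower values mean less growth of the strain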; conditions: S. cerevisiae deletion strains, growth OD, locus YKL085W, strain MDH1
The campaign covered roughly 5,500 compounds. About 2,000 (36%) were called active. Not shown: some 18% with an inconclusive outcome. Cut-off read from the data, not from the text of the source: active = normalized growth mostly below about 0.91 (no sharp cut-off); inconclusive = no clear call, values can overlap the other calls; inactive = mostly above about 0.92. The list shows a part of the results.
Outcome codes: class 1 for active, class 0 for inactive

>  <molecule>
CC12CCC(CC1)C(C)(C)O2

>  <category>
class 0

$$$$
>  <molecule>
OCC(S)CS (stereo not drawn)

>  <category>
class 0

$$$$
>  <molecule>
O=c1cccc2n1C[C@H]1CNCC2C1

>  <category>
class 0

$$$$
>  <molecule>
COc1c(C(=O)O)ccc2c1CCC(C)(C)O2

>  <category>
class 0

$$$$
>  <molecule>
CN=C1CN(O)C(c2ccccc2)=c2cc(Cl)ccc2=N1

>  <category>
class 0

$$$$
>  <molecule>
C=CCN1CC[C@]23c4c5ccc(O)c4OC2C(=O)CC[C@@]3(O)[C@H]1C5 (stereo partly drawn)

>  <category>
class 0

$$$$
>  <molecule>
CC12CCC3C(CC=C4CC(O)CCC43C)C1CCC2=O (stereo not drawn)

>  <category>
class 0

$$$$
>  <molecule>
CCOP(=S)(OCC)Oc1ccc2c(C)c(Cl)c(=O)oc2c1

>  <category>
class 0

$$$$
>  <molecule>
CC12CCCC(O)(C1)C1CC(C)(C)C1CC2 (stereo not drawn)

>  <category>
class 0

$$$$
>  <molecule>
CCn1cc(C(=O)O)c(=O)c2cc3c(cc21)OCO3

>  <category>
class 0

$$$$
>  <molecule>
COc1ccc(C[C@H](N)C(=O)N[C@@H]2[C@@H](CO)OC(n3cnc4c(N(C)C)ncnc43)[C@@H]2O)cc1 (stereo partly drawn)

>  <category>
class 0

$$$$
>  <molecule>
CCOP(=S)(OCC)SCSCC

>  <category>
class 0

$$$$
>  <molecule>
CC(=O)C1=C(O)C2C3c4c[nH]c5cccc(c45)CC3C(C)(C)N2C1=O (stereo not drawn)

>  <category>
class 0

$$$$
>  <molecule>
CCOP(=S)(OCC)SCCSCC

>  <category>
class 0

$$$$
>  <molecule>
CCCN(CCC)C(=O)C(CCC(=O)O)NC(=O)c1ccccc1 (stereo not drawn)

>  <category>
class 0

$$$$
>  <molecule>
CO[C@@H]1C[C@@H](C[C@H]2CC[C@H](C)[C@H]([C@@H](C)C(=O)O)O2)O[C@]2(O[C@](C)([C@H]3CC[C@@](C)(C4O[C@@H](C5O[C@@](O)(CO)[C@H](C)C[C@@H]5C)C[C@@H]4C)O3)C[C@H]2C)[C@@H]1C (stereo partly drawn)

>  <category>
class 0

$$$$
>  <molecule>
COP(=S)(OC)Oc1ccc(SC)c(C)c1

>  <category>
class 0

$$$$
>  <molecule>
CC1(C)CC2C1CCC1(C)OC1CCC2(C)O (stereo not drawn)

>  <category>
class 0

$$$$
>  <molecule>
CCn1cc(C(=O)O)c(=O)c2ccc(C)nc21

>  <category>
class 0

$$$$
>  <molecule>
CC1CC2C(C(O)CC3(C)C2CCC3(O)C(=O)COC(=O)CCC(=O)O)C2(C)C=CC(=O)C=C12 (stereo not drawn)

>  <category>
class 0

$$$$
>  <molecule>
CC(C)C1=CC2=CCC3[C@](C)(CCC[C@]3(C)C(=O)O)C2CC1 (stereo partly drawn)

>  <category>
class 0

$$$$
>  <molecule>
CCOP(=S)(OCC)SCSP(=S)(OCC)OCC

>  <category>
class 0

$$$$
>  <molecule>
CCOC(=O)CCCCCCCCCCCCC1C=CCC1 (stereo not drawn)

>  <category>
class 1

$$$$

###

test: chemical genetic growth profiling, strain panel (AID 1159580);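 note: tested at 20 µM; growth read once vehicle control cultures reached saturation at 30 °C; 1 = growth at the plate median or of vehicle wells; lower values mean less growth of the strain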; conditions: S. cerevisiae deletion strains, growth OD, locus YHR087W, strain rtc3, active compounds read low
About 2,000 (36%) of roughly 5,500 compounds were called active. About 18% were inconclusive and are not listed. This is one part of the list.
# if measured normalized growth < 1: true (1)  # else: false (0)

>  <smiles representation>
O=C(CCCCCCCCC(=O)c1ccccc1)c1ccccc1

>  <category>
false (0)

$$$$
>  <smiles representation>
Cc1cc(/C=N/NC(N)=S)c2c(C)ccc(C(C)C)cc1-2

>  <category>
false (0)

$$$$
>  <smiles representation>
CCC(=O)c1ccc(-c2ccccc2)cc1

>  <category>
true (1)

$$$$
>  <smiles representation>
O=S(=O)(c1cc(Br)c(Br)s1)N1CCCCC1

>  <category>
false (0)

$$$$
>  <smiles representation>
CCOC(=O)c1cc(-c2ccc(N)cc2)oc1C

>  <category>
true (1)

$$$$
>  <smiles representation>
O=C1CC(c2ccccc2)=NO1

>  <category>
true (1)

$$$$

###

assay: chemical genetic growth profiling, strain panel (AID 1159580);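 note: tested at 20 µM; growth read once vehicle control cultures reached saturation at 30 °C; 1 = growth at the plate median or of vehicle wells; lower values mean less growth of the strain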; details: S. cerevisiae deletion strains, growth OD, locus YKR026C, strain gcn3
In all, about 5,500 compounds went through this assay and about 2,000 (36%) were called active. Roughly 18% stayed inconclusive and do not appear here. Rule as the data show it: active = normalized growth mostly below about 0.91 (no sharp cut-off); inconclusive = no clear call, values can overlap the other calls; inactive = mostly above about 0.92. Some of the results follow.
Outcome codes: active, inactive

>  <molecule>
C=CCc1cc(OC)c2c(c1OC)OCO2

>  <category>
active

$$$$
>  <molecule>
NC(=O)c1ccc(N)nc1

>  <category>
inactive

$$$$
>  <molecule>
O=c1cccc2n1C[C@H]1CNCC2C1

>  <category>
inactive

$$$$
>  <molecule>
CC[C@@]1(C2O[C@@H](C3O[C@@](O)(CC)[C@H](C)C[C@@H]3C)C[C@@H]2C)CC[C@H]([C@]2(C)CCC3(C[C@H](O)[C@@H](C)[C@@H]([C@H](C)[C@@H](OC)[C@H](C)C(=O)O)O3)O2)O1 (some centres undefined)

>  <category>
inactive

$$$$

###

assay: chemical genetic growth profiling, strain panel (AID 1159580);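 note: tested at 20 µM; growth read once vehicle control cultures reached saturation at 30 °C; 1 = growth at the plate median or of vehicle wells; lower values mean less growth of the strain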; details: S. cerevisiae deletion strains, growth OD, locus YNL071W, strain lat1, active compounds read low
About 2,000 (36%) of roughly 5,500 compounds were called active. About 18% were inconclusive and are not listed. This is one part of the list.
In this section, each of the compounds is paired with its reported normalized growth.
recorded endpoint: normalized growth

>  <compound>
CC[C@@]1(C2O[C@@H](C3O[C@@](O)(CC)[C@H](C)C[C@@H]3C)C[C@@H]2C)CC[C@H]([C@]2(C)CCC3(C[C@H](O)[C@@H](C)[C@@H]([C@H](C)[C@@H](OC)[C@H](C)C(=O)O)O3)O2)O1 (some centres not stated)

>  <recorded endpoint>
normalized growth

>  <measurement>
1.01

$$$$
>  <compound>
CC(Cc1ccc(O)c(O)c1)(NN)C(=O)O (configuration not stated)

>  <recorded endpoint>
normalized growth

>  <measurement>
0.993

$$$$
>  <compound>
O=C(NC(=O)c1c(F)cccc1F)Nc1cc(Cl)c(OC(F)(F)C(F)C(F)(F)F)cc1Cl (configuration not stated)

>  <recorded endpoint>
normalized growth

>  <measurement>
0.992

$$$$
>  <compound>
O=C1OCCN1/N=C\c1ccc([N+](=O)[O-])o1

>  <recorded endpoint>
normalized growth

>  <measurement>
0.997

$$$$
>  <compound>
NC(=O)c1ccc(N)nc1

>  <recorded endpoint>
normalized growth

>  <measurement>
0.99

$$$$
>  <compound>
C[C@]12CCC3c4ccc(OS(=O)(=O)O)cc4CCC3C1CCC2=O (some centres not stated)

>  <recorded endpoint>
normalized growth

>  <measurement>
1.02

$$$$
>  <compound>
CCOP(=S)(OCC)Oc1ccc2c(C)c(Cl)c(=O)oc2c1

>  <recorded endpoint>
normalized growth

>  <measurement>
0.944

$$$$
>  <compound>
CCCN(CCC)CCc1cccc2c1CC(=O)N2

>  <recorded endpoint>
normalized growth

>  <measurement>
0.984

$$$$
>  <compound>
C#C[C@]1(O)CCC2C3CCc4cc(O)ccc4C3CC[C@@]21C (some centres not stated)

>  <recorded endpoint>
normalized growth

>  <measurement>
0.97

$$$$
>  <compound>
CC1=C(/C=C/C(C)=C/C=C/C(C)=C\C(=O)O)C(C)(C)CCC1

>  <recorded endpoint>
normalized growth

>  <measurement>
0.994

$$$$
>  <compound>
C[C@](N)(Cc1ccc(O)c(O)c1)C(=O)O

>  <recorded endpoint>
normalized growth

>  <measurement>
0.978

$$$$
>  <compound>
CC[C@@H]1[C@@H](O)N2C3C[C@H]1C1C(O)[C@]4(C[C@@H]12)c1ccccc1N(C)[C@@H]34 (some centres not stated)

>  <recorded endpoint>
normalized growth

>  <measurement>
1.03

$$$$
>  <compound>
CC1(C)O[C@@H]2CC3C4CCC5=CC(=O)C=C[C@]5(C)C4[C@@H](O)C[C@]3(C)[C@]2(C(=O)CO)O1 (some centres not stated)

>  <recorded endpoint>
normalized growth

>  <measurement>
0.998

$$$$
>  <compound>
S=c1[nH]c2ccccc2s1

>  <recorded endpoint>
normalized growth

>  <measurement>
0.929

$$$$
>  <compound>
O=C(NC(Cc1cc(=O)[nH]c2ccccc12)C(=O)O)c1ccc(Cl)cc1 (configuration not stated)

>  <recorded endpoint>
normalized growth

>  <measurement>
1.01

$$$$
>  <compound>
CCN(CC)CCOC(=O)C(Cc1cccc2ccccc12)CC1CCCO1 (configuration not stated)

>  <recorded endpoint>
normalized growth

>  <measurement>
1.01

$$$$
>  <compound>
O=C(O)CNCP(=O)(O)O

>  <recorded endpoint>
normalized growth

>  <measurement>
1.02

$$$$
>  <compound>
CC1(C)CC2C1CCC1(C)OC1CCC2(C)O (configuration not stated)

>  <recorded endpoint>
normalized growth

>  <measurement>
1.04

$$$$
>  <compound>
NC(=O)N/N=C\c1ccc([N+](=O)[O-])o1

>  <recorded endpoint>
normalized growth

>  <measurement>
0.99

$$$$
>  <compound>
c1ccc(-c2ccc(C(c3ccccc3)n3ccnc3)cc2)cc1 (configuration not stated)

>  <recorded endpoint>
normalized growth

>  <measurement>
0.0616

$$$$
>  <compound>
CCOC(=O)C(C)(N)Cc1ccc(O)c(O)c1 (configuration not stated)

>  <recorded endpoint>
normalized growth

>  <measurement>
1

$$$$
>  <compound>
O=C(O)CCCCC1SCC2NC(=O)NC21 (configuration not stated)

>  <recorded endpoint>
normalized growth

>  <measurement>
0.979

$$$$
>  <compound>
O=C(O)c1cc(O)c(O)c(O)c1

>  <recorded endpoint>
normalized growth

>  <measurement>
1.06

$$$$
>  <compound>
N[C@@H](CCC(=O)N[C@@H](CCSC(CC(=O)O)C(=O)O)C(=O)NCC(=O)O)C(=O)O (some centres not stated)

>  <recorded endpoint>
normalized growth

>  <measurement>
1.01

$$$$
>  <compound>
O=C(/C=C/c1ccc(O)c(O)c1)O[C@@H]1C[C@](O)(C(=O)O)C[C@@H](O)[C@H]1O

>  <recorded endpoint>
normalized growth

>  <measurement>
0.987

$$$$
>  <compound>
Oc1ccc(/C=C/c2cc(O)cc(O)c2)cc1

>  <recorded endpoint>
normalized growth

>  <measurement>
0.988

$$$$
>  <compound>
CCOC(N)=O

>  <recorded endpoint>
normalized growth

>  <measurement>
1.01

$$$$
>  <compound>
O=C1CN(/N=C\c2ccc([N+](=O)[O-])o2)C(=O)N1

>  <recorded endpoint>
normalized growth

>  <measurement>
0.959

$$$$
>  <compound>
OC/C=C/c1ccc(O)c(O)c1

>  <recorded endpoint>
normalized growth

>  <measurement>
0.993

$$$$
>  <compound>
CCn1cc(C(=O)O)c(=O)c2ccc(C)nc21

>  <recorded endpoint>
normalized growth

>  <measurement>
0.925

$$$$
>  <compound>
COc1ccc(-c2cc(C(F)F)nn2-c2ccc(S(N)(=O)=O)cc2)cc1F

>  <recorded endpoint>
normalized growth

>  <measurement>
0.996

$$$$
>  <compound>
C#C[C@]1(O)CCC2C3CCc4cc(OC)ccc4C3CC[C@@]21C (some centres not stated)

>  <recorded endpoint>
normalized growth

>  <measurement>
0.89

$$$$
>  <compound>
CC[C@]12CCCN3CCc4c(n(c5ccccc45)C(=O)C1)[C@@H]32

>  <recorded endpoint>
normalized growth

>  <measurement>
0.996

$$$$
>  <compound>
NC(=O)c1cc[n+](CC2=C(C(=O)O)N3C(=O)C(NC(=O)C(c4ccccc4)S(=O)(=O)[O-])C3SC2)cc1 (configuration not stated)

>  <recorded endpoint>
normalized growth

>  <measurement>
1.01

$$$$
>  <compound>
CCOC(=O)CCCCCCCCCCCCC1C=CCC1 (configuration not stated)

>  <recorded endpoint>
normalized growth

>  <measurement>
0.808

$$$$
>  <compound>
CC12CCCC(O)(C1)C1CC(C)(C)C1CC2 (configuration not stated)

>  <recorded endpoint>
normalized growth

>  <measurement>
0.859

$$$$
>  <compound>
CC[C@]12CCCN3CCc4c(n(c5ccccc45)[C@](O)(C(=O)OC)C1)[C@@H]32

>  <recorded endpoint>
normalized growth

>  <measurement>
0.981

$$$$
>  <compound>
C[C@](N)(Cc1ccc(O)cc1)C(=O)O

>  <recorded endpoint>
normalized growth

>  <measurement>
1.01

$$$$
>  <compound>
CCn1cc(C(=O)O)c(=O)c2cnc(N3CCNCC3)nc21

>  <recorded endpoint>
normalized growth

>  <measurement>
1.01

$$$$
>  <compound>
Nc1ccc(S(=O)(=O)Nc2nccs2)cc1

>  <recorded endpoint>
normalized growth

>  <measurement>
1.01

$$$$
>  <compound>
NC(=O)c1cnccn1

>  <recorded endpoint>
normalized growth

>  <measurement>
1.01

$$$$
>  <compound>
NCc1ccc(S(N)(=O)=O)cc1

>  <recorded endpoint>
normalized growth

>  <measurement>
1.01

$$$$
>  <compound>
CN(Cc1cc(Br)cc(Br)c1N)C1CCCCC1

>  <recorded endpoint>
normalized growth

>  <measurement>
1.04

$$$$
>  <compound>
CC1=C(/C=C/C(C)=C/C=C/C(C)=C/C=C/C=C(C)/C=C/C=C(C)/C=C/C2=C(C)CCCC2(C)C)C(C)(C)CCC1

>  <recorded endpoint>
normalized growth

>  <measurement>
0.984

$$$$
>  <compound>
CN1CCc2cccc3c2C1Cc1ccc(O)c(O)c1-3 (configuration not stated)

>  <recorded endpoint>
normalized growth

>  <measurement>
0.627

$$$$
>  <compound>
C[C@@H]1CC2C3CCC4=CC(=O)C=C[C@]4(C)[C@@]3(F)[C@@H](O)C[C@]2(C)[C@@]1(O)C(=O)COP(=O)(O)O (some centres not stated)

>  <recorded endpoint>
normalized growth

>  <measurement>
0.985

$$$$
>  <compound>
CC1=C(/C=C/C(C)=C/C=C/C(C)=C/CO)C(C)(C)CCC1

>  <recorded endpoint>
normalized growth

>  <measurement>
1.03

$$$$
